- EXPERIMENTAL TARGET: human EGFR (L858R/C797S) (Homo sapiens, UniProt P00533, C797S/L858R)
- Construct: purchased SignalChem
- Sequence (P00533 25-1210 C797S/L858R): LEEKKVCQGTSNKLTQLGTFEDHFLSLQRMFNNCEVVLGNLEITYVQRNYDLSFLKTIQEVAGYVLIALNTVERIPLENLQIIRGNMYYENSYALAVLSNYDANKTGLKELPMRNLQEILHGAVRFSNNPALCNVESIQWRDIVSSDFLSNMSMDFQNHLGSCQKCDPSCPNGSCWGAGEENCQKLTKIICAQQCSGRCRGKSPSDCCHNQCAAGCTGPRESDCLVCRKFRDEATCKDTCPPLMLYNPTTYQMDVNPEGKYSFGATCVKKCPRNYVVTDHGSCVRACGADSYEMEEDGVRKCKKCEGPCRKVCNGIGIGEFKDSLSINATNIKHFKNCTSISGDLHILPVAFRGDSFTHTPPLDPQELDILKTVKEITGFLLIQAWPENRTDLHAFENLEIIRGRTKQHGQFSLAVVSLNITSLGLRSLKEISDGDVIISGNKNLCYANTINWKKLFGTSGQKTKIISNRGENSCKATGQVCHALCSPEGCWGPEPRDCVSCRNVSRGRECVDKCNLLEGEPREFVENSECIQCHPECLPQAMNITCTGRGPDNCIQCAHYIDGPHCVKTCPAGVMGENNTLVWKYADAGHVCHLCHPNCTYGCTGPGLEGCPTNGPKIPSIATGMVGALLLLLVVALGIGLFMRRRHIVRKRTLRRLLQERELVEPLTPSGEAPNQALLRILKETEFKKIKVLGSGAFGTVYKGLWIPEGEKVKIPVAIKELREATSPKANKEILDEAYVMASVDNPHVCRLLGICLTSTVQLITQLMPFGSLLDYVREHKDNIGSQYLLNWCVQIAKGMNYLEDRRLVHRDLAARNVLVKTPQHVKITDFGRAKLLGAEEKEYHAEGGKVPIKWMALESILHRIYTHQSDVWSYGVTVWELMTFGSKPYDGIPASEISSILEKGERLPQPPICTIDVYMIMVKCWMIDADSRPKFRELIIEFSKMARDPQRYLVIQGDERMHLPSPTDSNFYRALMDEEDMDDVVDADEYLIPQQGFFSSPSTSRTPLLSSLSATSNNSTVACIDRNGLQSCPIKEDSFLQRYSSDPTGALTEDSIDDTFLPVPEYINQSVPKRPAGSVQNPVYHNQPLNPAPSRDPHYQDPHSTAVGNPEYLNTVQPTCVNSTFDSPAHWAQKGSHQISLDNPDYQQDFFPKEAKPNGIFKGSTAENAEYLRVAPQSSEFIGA
- PROCEDURE SUMMARY: Inhibitory activity against EGFR (L858R/C797S) kinase
- Type: biochemical
- TEST CONTEXT: Test Example 1, Table 5; ATP 4 μM, 90 minutes
- Description: 4) Measurement of inhibitory activity against EGFR (L858R/C797S) kinase The compounds of the present invention were measured for their inhibitory activity aeainst EGFR (L858R/C797S) kinase activity. […] In accordance with the same procedures as shown in 4) in Test Example 1, the compounds of the present invention were measured for their inhibitor activity against. […]
pIC50: −log10 of the molar value.
MEASURE NAME: pIC50

molecular_string=C#Cc1c(-c2cnc3ccccc3c2)c2c(N)ncnc2n1C12CCC(NC(=O)c3ccnn3CCOC)(CC1)C2 experimental_target="human EGFR (L858R/C797S) (Homo sapiens, UniProt P00533, C797S/L858R)" result_value=9.18

P: C#Cc1c(-c2cnc3ccccc3c2)c2c(N)ncnc2n1C12CCC(NC(=O)c3nccnn3)(CC1)C2
Q: C#Cc1c(-c2cnc3ccccc3c2)c2c(N)ncnc2n1C12CCC(NC(=O)c3ccc4ncnn4c3)(CC1)C2
Req: # returns the entry with the larger pIC50; inputs P and Q Pick one and reply with its label.
Resp: P

A: C#Cc1c(-c2cnc3ccccc3c2)c2c(N)ncnc2n1C12CCC(NC(=O)c3ccccc3)(CC1)C2
B: C#Cc1c(-c2cnc3ccccc3c2)c2c(N)ncnc2n1C12CCC(NC(=O)c3noc(C)n3)(CC1)C2
C: C#Cc1c(-c2cnc3ccccc3c2)c2c(N)ncnc2n1C12CCC(NC(=O)c3cncn(C)c3=O)(CC1)C2
Req: Would you mind ranking these compounds by ascending pIC50? Response format: the labels, sorted as the prompt asks.
Resp: A, B, C

1: C#Cc1c(-c2cnc3ccccc3c2)c2c(N)ncnc2n1C12CCC(CO)(CC1)C2
2: CC#Cc1c(-c2cnc3ccccc3c2)c2c(N)ncnc2n1C12CCC(NC(=O)c3ccnn3C)(CC1)C2
3: C#Cc1c(-c2cnc3ccccc3c2)c2c(N)ncnc2n1C12CCC(NC(=O)c3cccnc3)(CC1)C2
Req: Sequence the entries by pIC50, beginning with the highest number. Response format: the labels, sorted as the prompt asks.
Resp: 3, 1, 2
